# Test system: 857933-349-R-J2-PDC complex spheroid viability
# test summary: Anticancer human tumor 857933-349-R-J2-PDC patient-derived colon adenocarcinoma cell line growth inhibition [POLQ]
# reported conditions: second compound 1 µM; first compound 3.16 µM; hits give low values
Consider the following molecules and their measured viability, T/C readings.
Kindly answer with a numeric value in %, unit omitted.

// worked examples, viability, T/C included
molecule	readout number
CNCc1ccc(-c2[nH]c3cc(F)cc4c3c2CCNC4=O)cc1 + COC1C(OC(N)=O)C(O)C(Oc2ccc3c(O)c(NC(=O)c4ccc(O)c(CC=C(C)C)c4)c(=O)oc3c2C)OC1(C)C	117
O=C(Nc1ccc(O)c(NS(=O)(=O)c2ccc(F)cc2)c1)c1ccc(-c2ccccc2)cc1 + Nc1ccc(C#CCN(C(=O)Cc2ncc(C(F)(F)F)cc2C(F)(F)F)c2ccc(F)cc2)nn1	89.7

Okay, next one:
Request: Read the entry COc1ccc([C@@H](O)c2cc(-c3ncnc4cc(N5CCOCC5)ccc34)c(F)cc2Cl)nn1 + COC1C(OC(N)=O)C(O)C(Oc2ccc3c(O)c(NC(=O)c4ccc(O)c(CC=C(C)C)c4)c(=O)oc3c2C)OC1(C)C and write its reported viability, T/C.
Result: 89.8

###

Consider the following compounds and their measured viability, T/C readings.
# Tested on: 857933-349-R-J2-PDC complex spheroid viability
# test summary: Anticancer human tumor 857933-349-R-J2-PDC cell line growth inhibition [POLQ];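 also: spheroids exposed to compounds for seven days before readout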
# reported conditions: second compound 3.16 µM; first compound 0.1 µM; hits give low values

compound	result
CCc1c2c(nc3ccc(O)cc13)-c1cc3c(c(=O)n1C2)COC(=O)[C@]3(O)CC + COC1C(OC(N)=O)C(O)C(Oc2ccc3c(O)c(NC(=O)c4ccc(O)c(CC=C(C)C)c4)c(=O)oc3c2C)OC1(C)C	22.4%
COc1cc2cc(C(=O)CCC(=O)O)sc2cc1OC + Cc1cccc(N(C)C(=O)C2C(O)CCN2c2nc(C)cc(C(F)(F)F)c2C#N)c1	106%
C=CCn1c(=O)c2cnc(Nc3ccc(N4CCN(C)CC4)cc3)nc2n1-c1cccc(C(C)(C)O)n1 + Nc1ccc(C#CCN(C(=O)Cc2ncc(C(F)(F)F)cc2C(F)(F)F)c2ccc(F)cc2)nn1	101%
CC1COCCN1c1cc(C2(S(C)(=N)=O)CC2)nc(-c2ccnc3[nH]ccc23)n1 (stereo not given) + Nc1ccc(C#CCN(C(=O)Cc2ncc(C(F)(F)F)cc2C(F)(F)F)c2ccc(F)cc2)nn1	88.1%

Request: Read the entry COc1ccc([C@@H](O)c2cc(-c3ncnc4cc(N5CCOCC5)ccc34)c(F)cc2Cl)nn1 + COC1C(OC(N)=O)C(O)C(Oc2ccc3c(O)c(NC(=O)c4ccc(O)c(CC=C(C)C)c4)c(=O)oc3c2C)OC1(C)C and write its reported viability, T/C.
Result: 118%

###

# Test system: 857933-349-R-J2-PDC complex spheroid viability
# test summary: Anticancer human tumor 857933-349-R-J2-PDC cell line growth inhibition [POLQ];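 also: spheroids exposed to compounds for seven days before readout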
# reported conditions: second compound 1 µM; first compound 3.16 µM; hits give low values
quantity name: viability, T/C (%)
Kindly answer with a numeric value in %, unit omitted.

// worked examples, viability, T/C included
compound	viability, T/C [%]
O=C(Nc1ccc(O)c(NS(=O)(=O)c2ccc(F)cc2)c1)c1ccc(-c2ccccc2)cc1 + COC1C(OC(N)=O)C(O)C(Oc2ccc3c(O)c(NC(=O)c4ccc(O)c(CC=C(C)C)c4)c(=O)oc3c2C)OC1(C)C	109
CCCS(=O)(=O)Nc1ccc(F)c(C(=O)c2c[nH]c3ncc(-c4ccc(Cl)cc4)cc23)c1F + Nc1ccc(C#CCN(C(=O)Cc2ncc(C(F)(F)F)cc2C(F)(F)F)c2ccc(F)cc2)nn1	109
C=CC(=O)N1CCN(c2nc(=O)n(-c3c(C)ccnc3C(C)C)c3nc(-c4c(O)cccc4F)c(F)cc23)C(C)C1 (stereo not given) + Nc1ccc(C#CCN(C(=O)Cc2ncc(C(F)(F)F)cc2C(F)(F)F)c2ccc(F)cc2)nn1	110
CCc1cc2c(N3CCc4c(cc(Cn5ccnc5)cc4-c4cn(C)nc4C(F)(F)F)C3=O)cc(C)nc2c(OC)n1 + Cc1cccc(N(C)C(=O)C2C(O)CCN2c2nc(C)cc(C(F)(F)F)c2C#N)c1	73.8

Request: Read the entry CC1COCCN1c1cc(C2(S(C)(=N)=O)CC2)nc(-c2ccnc3[nH]ccc23)n1 (stereo not given) + COC1C(OC(N)=O)C(O)C(Oc2ccc3c(O)c(NC(=O)c4ccc(O)c(CC=C(C)C)c4)c(=O)oc3c2C)OC1(C)C and write its reported viability, T/C.
Result: 55.2

###

Consider the following compounds and their measured viability, T/C readings.
# System: 857933-349-R-J2-PDC complex spheroid viability
# test summary: Anticancer human tumor 857933-349-R-J2-PDC cell line growth inhibition [POLQ];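 also: spheroids exposed to compounds for seven days before readout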
# reported conditions: second compound 1 µM; first compound 3.16 µM; hits give low values
Kindly answer with a numeric value in %, unit omitted.

compound	quantity name	readout number
COc1cc2cc(C(=O)CCC(=O)O)sc2cc1OC + Nc1ccc(C#CCN(C(=O)Cc2ncc(C(F)(F)F)cc2C(F)(F)F)c2ccc(F)cc2)nn1	viability, T/C	110
CCCS(=O)(=O)Nc1ccc(F)c(C(=O)c2c[nH]c3ncc(-c4ccc(Cl)cc4)cc23)c1F + Cc1cccc(N(C)C(=O)C2C(O)CCN2c2nc(C)cc(C(F)(F)F)c2C#N)c1	viability, T/C	103
CCc1cc2c(N3CCc4c(cc(Cn5ccnc5)cc4-c4cn(C)nc4C(F)(F)F)C3=O)ccnc2c(OC)n1 + Nc1ccc(C#CCN(C(=O)Cc2ncc(C(F)(F)F)cc2C(F)(F)F)c2ccc(F)cc2)nn1	viability, T/C	71.1
COc1cc(C2c3cc4c(cc3C(OC3OC5COC(C)OC5C(O)C3O)C3COC(=O)C23)OCO4)cc(OC)c1O (stereo not drawn) + COC1C(OC(N)=O)C(O)C(Oc2ccc3c(O)c(NC(=O)c4ccc(O)c(CC=C(C)C)c4)c(=O)oc3c2C)OC1(C)C	viability, T/C	34.2
CC1COCCN1c1cc(C2(O)CC3CCC(C2)O3)c2cnn(-c3ccn[nH]3)c2n1 (stereo not drawn) + Nc1ccc(C#CCN(C(=O)Cc2ncc(C(F)(F)F)cc2C(F)(F)F)c2ccc(F)cc2)nn1	viability, T/C	40

Request: Provide 857933-349-R-J2-PDC complex spheroid viability viability, T/C reading for CC1COCCN1c1cc(-c2ccnn2C)c2ccnc(-c3ccn[nH]3)c2n1 (stereo not drawn) + Cc1cccc(N(C)C(=O)C2C(O)CCN2c2nc(C)cc(C(F)(F)F)c2C#N)c1 .
Result: 42.6

Request: Provide 857933-349-R-J2-PDC complex spheroid viability viability, T/C reading for CCc1cc2c(N3CCc4c(cc(Cn5ccnc5)cc4-c4cn(C)nc4C(F)(F)F)C3=O)cc(C)nc2c(OC)n1 + Nc1ccc(C#CCN(C(=O)Cc2ncc(C(F)(F)F)cc2C(F)(F)F)c2ccc(F)cc2)nn1 .
Result: 75.3

Request: Provide 857933-349-R-J2-PDC complex spheroid viability viability, T/C reading for COc1cc(C2c3cc4c(cc3C(OC3OC5COC(C)OC5C(O)C3O)C3COC(=O)C23)OCO4)cc(OC)c1O (stereo not drawn) + Cc1cccc(N(C)C(=O)C2C(O)CCN2c2nc(C)cc(C(F)(F)F)c2C#N)c1 .
Result: 36.5

###

# Tested on: 857933-349-R-J2-PDC complex spheroid viability
# test summary: Anticancer human tumor 857933-349-R-J2-PDC cell line growth inhibition [POLQ];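 also: spheroids exposed to compounds for seven days before readout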
# reported conditions: second compound 3.16 µM; first compound 0.0316 µM; hits give low values
quantity name: viability, T/C (%)
Kindly answer with a numeric value in %, unit omitted.

Request: Read the entry CNCc1ccc(-c2[nH]c3cc(F)cc4c3c2CCNC4=O)cc1 + COC1C(OC(N)=O)C(O)C(Oc2ccc3c(O)c(NC(=O)c4ccc(O)c(CC=C(C)C)c4)c(=O)oc3c2C)OC1(C)C and write its reported viability, T/C.
Result: 82.5

Request: Read the entry O=c1[nH]cc(F)c(=O)[nH]1 + COC1C(OC(N)=O)C(O)C(Oc2ccc3c(O)c(NC(=O)c4ccc(O)c(CC=C(C)C)c4)c(=O)oc3c2C)OC1(C)C and write its reported viability, T/C.
Result: 79.7

Request: Read the entry C=CCn1c(=O)c2cnc(Nc3ccc(N4CCN(C)CC4)cc3)nc2n1-c1cccc(C(C)(C)O)n1 + COC1C(OC(N)=O)C(O)C(Oc2ccc3c(O)c(NC(=O)c4ccc(O)c(CC=C(C)C)c4)c(=O)oc3c2C)OC1(C)C and write its reported viability, T/C.
Result: 74.6

Request: Read the entry C=CC(=O)N1CCN(c2nc(=O)n(-c3c(C)ccnc3C(C)C)c3nc(-c4c(O)cccc4F)c(F)cc23)C(C)C1 (configuration not stated) + COC1C(OC(N)=O)C(O)C(Oc2ccc3c(O)c(NC(=O)c4ccc(O)c(CC=C(C)C)c4)c(=O)oc3c2C)OC1(C)C and write its reported viability, T/C.
Result: 98.1

Request: Read the entry COc1cc2cc(C(=O)CCC(=O)O)sc2cc1OC + Cc1cccc(N(C)C(=O)C2C(O)CCN2c2nc(C)cc(C(F)(F)F)c2C#N)c1 and write its reported viability, T/C.
Result: 104

Request: Read the entry CCc1cc2c(N3CCc4c(cc(Cn5ccnc5)cc4-c4cn(C)nc4C(F)(F)F)C3=O)cc(C)nc2c(OC)n1 + COC1C(OC(N)=O)C(O)C(Oc2ccc3c(O)c(NC(=O)c4ccc(O)c(CC=C(C)C)c4)c(=O)oc3c2C)OC1(C)C and write its reported viability, T/C.
Result: 77.7

Request: Read the entry CCc1c2c(nc3ccc(O)cc13)-c1cc3c(c(=O)n1C2)COC(=O)[C@]3(O)CC + COC1C(OC(N)=O)C(O)C(Oc2ccc3c(O)c(NC(=O)c4ccc(O)c(CC=C(C)C)c4)c(=O)oc3c2C)OC1(C)C and write its reported viability, T/C.
Result: 29.8

Request: Read the entry CNCc1ccc(-c2[nH]c3cc(F)cc4c3c2CCNC4=O)cc1 + Nc1ccc(C#CCN(C(=O)Cc2ncc(C(F)(F)F)cc2C(F)(F)F)c2ccc(F)cc2)nn1 and write its reported viability, T/C.
Result: 96.3

Request: Read the entry CC(C)n1c(=O)n(C)c2cnc3cc(F)c(-c4ccc(OCCCN5CCCCC5)nc4)cc3c21 + Cc1cccc(N(C)C(=O)C2C(O)CCN2c2nc(C)cc(C(F)(F)F)c2C#N)c1 and write its reported viability, T/C.
Result: 83.6

Request: Read the entry COc1ccc([C@@H](O)c2cc(-c3ncnc4cc(N5CCOCC5)ccc34)c(F)cc2Cl)nn1 + Nc1ccc(C#CCN(C(=O)Cc2ncc(C(F)(F)F)cc2C(F)(F)F)c2ccc(F)cc2)nn1 and write its reported viability, T/C.
Result: 88.2

Request: Read the entry CC1COCCN1c1cc(-c2ccnn2C)c2ccnc(-c3ccn[nH]3)c2n1 (configuration not stated) + COC1C(OC(N)=O)C(O)C(Oc2ccc3c(O)c(NC(=O)c4ccc(O)c(CC=C(C)C)c4)c(=O)oc3c2C)OC1(C)C and write its reported viability, T/C.
Result: 76.4

Request: Read the entry COc1cccc2c1C(=O)c1c(O)c3c(c(O)c1C2=O)CC(O)(C(=O)CO)CC3OC1CC(N)C(O)C(C)O1 (configuration not stated) + Cc1cccc(N(C)C(=O)C2C(O)CCN2c2nc(C)cc(C(F)(F)F)c2C#N)c1 and write its reported viability, T/C.
Result: 86.2

Request: Read the entry O=C(Nc1ccc(O)c(NS(=O)(=O)c2ccc(F)cc2)c1)c1ccc(-c2ccccc2)cc1 + Cc1cccc(N(C)C(=O)C2C(O)CCN2c2nc(C)cc(C(F)(F)F)c2C#N)c1 and write its reported viability, T/C.
Result: 97.9

Request: Read the entry CCc1cc2c(N3CCc4c(cc(Cn5ccnc5)cc4-c4cn(C)nc4C(F)(F)F)C3=O)ccnc2c(OC)n1 + Nc1ccc(C#CCN(C(=O)Cc2ncc(C(F)(F)F)cc2C(F)(F)F)c2ccc(F)cc2)nn1 and write its reported viability, T/C.
Result: 97.6

Request: Read the entry C=CCn1c(=O)c2cnc(Nc3ccc(N4CCN(C)CC4)cc3)nc2n1-c1cccc(C(C)(C)O)n1 + Nc1ccc(C#CCN(C(=O)Cc2ncc(C(F)(F)F)cc2C(F)(F)F)c2ccc(F)cc2)nn1 and write its reported viability, T/C.
Result: 74.9

Request: Read the entry CC[C@@]1(O)C(=O)OCc2c1cc1n(c2=O)Cc2cc3c(CN(C)C)c(O)ccc3nc2-1 + Cc1cccc(N(C)C(=O)C2C(O)CCN2c2nc(C)cc(C(F)(F)F)c2C#N)c1 and write its reported viability, T/C.
Result: 69.4

Request: Read the entry CC1COCCN1c1cc(C2(O)CC3CCC(C2)O3)c2cnn(-c3ccn[nH]3)c2n1 (configuration not stated) + Nc1ccc(C#CCN(C(=O)Cc2ncc(C(F)(F)F)cc2C(F)(F)F)c2ccc(F)cc2)nn1 and write its reported viability, T/C.
Result: 79.2
